measured.target: isolated CBM40 from V. cholerae sialidase (Vibrio cholerae serotype O1, UniProt P0C6E9)
Sequence (P0C6E9 25-216): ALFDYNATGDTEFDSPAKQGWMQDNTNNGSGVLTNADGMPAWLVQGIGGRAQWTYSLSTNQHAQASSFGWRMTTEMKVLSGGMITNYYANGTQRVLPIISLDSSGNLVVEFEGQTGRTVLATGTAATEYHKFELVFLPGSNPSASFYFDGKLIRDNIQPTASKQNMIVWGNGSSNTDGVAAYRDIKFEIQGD
test.parameters: ITC, 25° C.
quantity.name: ΔG (kcal/mol)
Give bare numbers, in kcal/mol.

| compound | assay.result |
| --- | --- |
| CC(=O)N[C@H]1[C@H]([C@H](O)[C@H](O)CO)O[C@@](OC[C@H]2O[C@@H](O[C@H]3[C@H](O)[C@@H](O)[C@H](O)O[C@@H]3CO)[C@H](O)[C@@H](O)[C@H]2O)(C(=O)O)C[C@@H]1O | -6.4 |

// each listed compound needs a value for ΔG
1. CC(=O)N[C@H]1[C@H]([C@H](O)[C@H](O)CO)O[C@@](O[C@H]2[C@@H](O)[C@@H](CO)O[C@@H](O[C@H]3[C@H](O)[C@@H](O)C(O)O[C@@H]3CO)[C@@H]2O)(C(=O)O)C[C@@H]1O (stereo partly shown)
2. CC(=O)N[C@H]1[C@H]([C@H](O)[C@H](O)CO)O[C@@](O[C@H](CO)[C@@H](O)[C@@H]2O[C@@](O[C@H]3[C@@H](O)[C@@H](CO)O[C@@H](O[C@H]4[C@H](O)[C@@H](O)C(O)O[C@@H]4CO)[C@@H]3O)(C(=O)O)C[C@H](O)[C@H]2NC(C)=O)(C(=O)O)C[C@@H]1O (stereo partly shown)
3. CC(=O)N[C@H]1[C@H](O[C@H]2[C@@H](O)[C@@H](CO)O[C@@H](O[C@@H]([C@H](O)[C@@H](O)C=O)[C@H](O)CO)[C@@H]2O)O[C@H](CO[C@]2(C(=O)O)C[C@H](O)[C@@H](NC(C)=O)[C@H]([C@H](O)[C@H](O)CO)O2)[C@@H](O)[C@@H]1O[C@@H]1O[C@H](CO)[C@H](O)[C@H](O[C@]2(C(=O)O)C[C@H](O)[C@@H](NC(C)=O)[C@H]([C@H](O)[C@H](O)CO)O2)[C@H]1O

Reply text:
1. -6.5
2. -6.8
3. -6.7

###

measured.target: isolated CBM40 from V. cholerae sialidase (Vibrio cholerae serotype O1, UniProt P0C6E9)
test.parameters: ITC, 25° C.
quantity.name: Ka

// each listed molecule needs a value for Ka
1. CC(=O)N[C@H]1[C@H]([C@H](O)[C@H](O)CO)O[C@@](O[C@H](CO)[C@@H](O)[C@@H]2O[C@@](O[C@H]3[C@@H](O)[C@@H](CO)O[C@@H](O[C@H]4[C@H](O)[C@@H](O)C(O)O[C@@H]4CO)[C@@H]3O)(C(=O)O)C[C@H](O)[C@H]2NC(C)=O)(C(=O)O)C[C@@H]1O (stereo partly shown) [DSL, disialyllactose]
2. CC(=O)N[C@H]1[C@H](O[C@H]2[C@@H](O)[C@@H](CO)O[C@@H](O[C@@H]([C@H](O)[C@@H](O)C=O)[C@H](O)CO)[C@@H]2O)O[C@H](CO[C@]2(C(=O)O)C[C@H](O)[C@@H](NC(C)=O)[C@H]([C@H](O)[C@H](O)CO)O2)[C@@H](O)[C@@H]1O[C@@H]1O[C@H](CO)[C@H](O)[C@H](O[C@]2(C(=O)O)C[C@H](O)[C@@H](NC(C)=O)[C@H]([C@H](O)[C@H](O)CO)O2)[C@H]1O [DSLNT, disialyl-lacto-N-tetraose]
3. CC(=O)N[C@H]1[C@H]([C@H](O)[C@H](O)CO)O[C@@](OC[C@H]2O[C@@H](O[C@H]3[C@H](O)[C@@H](O)[C@H](O)O[C@@H]3CO)[C@H](O)[C@@H](O)[C@H]2O)(C(=O)O)C[C@@H]1O [6′SL, 6′sialyllactose]
4. CC(=O)N[C@H]1[C@H]([C@H](O)[C@H](O)CO)O[C@@](O[C@H]2[C@@H](O)[C@@H](CO)O[C@@H](O[C@H]3[C@H](O)[C@@H](O)C(O)O[C@@H]3CO)[C@@H]2O)(C(=O)O)C[C@@H]1O (stereo partly shown) [3′SL, 3′sialyllactose]

Reply text:
1: 10.2 ± 0.01 10^−4M; 2: 7.8 ± 0.06 10^−4M; 3: 5.16 ± 0.03 10^−4M; 4: 5.48 ± 0.05 10^−4M

###

Exercise: state measured TΔS for each of the molecules provided.
measured.target: isolated CBM40 from V. cholerae sialidase (Vibrio cholerae serotype O1)
test.parameters: ITC, 25° C.
Give bare numbers, in kcal/mol.

Some molecules with recorded TΔS:
| molecule | measured.target | assay.result |
| --- | --- | --- |
| CC(=O)N[C@H]1[C@H](O[C@H]2[C@@H](O)[C@@H](CO)O[C@@H](O[C@@H]([C@H](O)[C@@H](O)C=O)[C@H](O)CO)[C@@H]2O)O[C@H](CO[C@]2(C(=O)O)C[C@H](O)[C@@H](NC(C)=O)[C@H]([C@H](O)[C@H](O)CO)O2)[C@@H](O)[C@@H]1O[C@@H]1O[C@H](CO)[C@H](O)[C@H](O[C@]2(C(=O)O)C[C@H](O)[C@@H](NC(C)=O)[C@H]([C@H](O)[C@H](O)CO)O2)[C@H]1O [DSLNT, disialyl-lacto-N-tetraose] | isolated CBM40 from V. cholerae sialidase (Vibrio cholerae serotype O1) | -17.3 |
| CC(=O)N[C@H]1[C@H]([C@H](O)[C@H](O)CO)O[C@@](O[C@H](CO)[C@@H](O)[C@@H]2O[C@@](O[C@H]3[C@@H](O)[C@@H](CO)O[C@@H](O[C@H]4[C@H](O)[C@@H](O)C(O)O[C@@H]4CO)[C@@H]3O)(C(=O)O)C[C@H](O)[C@H]2NC(C)=O)(C(=O)O)C[C@@H]1O (stereo partly shown) [DSL, disialyllactose] | isolated CBM40 from V. cholerae sialidase (Vibrio cholerae serotype O1) | -5.7 |
| CC(=O)N[C@H]1[C@H]([C@H](O)[C@H](O)CO)O[C@@](OC[C@H]2O[C@@H](O[C@H]3[C@H](O)[C@@H](O)[C@H](O)O[C@@H]3CO)[C@H](O)[C@@H](O)[C@H]2O)(C(=O)O)C[C@@H]1O [6′SL, 6′sialyllactose] | isolated CBM40 from V. cholerae sialidase (Vibrio cholerae serotype O1) | -3.5 |

Inquiry: Return TΔS for the following molecule: CC(=O)N[C@H]1[C@H]([C@H](O)[C@H](O)CO)O[C@@](O[C@H]2[C@@H](O)[C@@H](CO)O[C@@H](O[C@H]3[C@H](O)[C@@H](O)C(O)O[C@@H]3CO)[C@@H]2O)(C(=O)O)C[C@@H]1O (stereo partly shown) [3′SL, 3′sialyllactose]
Reply text: -9.8

###

measured.target: isolated CBM40 from V. cholerae sialidase (Vibrio cholerae serotype O1)
test.parameters: ITC, 25° C.
quantity.name: pKd
One number for each entry, as −log10 of the molar value.

Some molecules with recorded pKd:
| molecule | measured.target | quantity.name | assay.result |
| --- | --- | --- | --- |
| CC(=O)N[C@H]1[C@H]([C@H](O)[C@H](O)CO)O[C@@](O[C@H](CO)[C@@H](O)[C@@H]2O[C@@](O[C@H]3[C@@H](O)[C@@H](CO)O[C@@H](O[C@H]4[C@H](O)[C@@H](O)C(O)O[C@@H]4CO)[C@@H]3O)(C(=O)O)C[C@H](O)[C@H]2NC(C)=O)(C(=O)O)C[C@@H]1O (stereo partly shown) | isolated CBM40 from V. cholerae sialidase (Vibrio cholerae serotype O1) | pKd | 5.01 |
| CC(=O)N[C@H]1[C@H]([C@H](O)[C@H](O)CO)O[C@@](OC[C@H]2O[C@@H](O[C@H]3[C@H](O)[C@@H](O)[C@H](O)O[C@@H]3CO)[C@H](O)[C@@H](O)[C@H]2O)(C(=O)O)C[C@@H]1O | isolated CBM40 from V. cholerae sialidase (Vibrio cholerae serotype O1) | pKd | 4.72 |
| CC(=O)N[C@H]1[C@H]([C@H](O)[C@H](O)CO)O[C@@](O[C@H]2[C@@H](O)[C@@H](CO)O[C@@H](O[C@H]3[C@H](O)[C@@H](O)C(O)O[C@@H]3CO)[C@@H]2O)(C(=O)O)C[C@@H]1O (stereo partly shown) | isolated CBM40 from V. cholerae sialidase (Vibrio cholerae serotype O1) | pKd | 4.74 |

Inquiry: Give the observed pKd of CC(=O)N[C@H]1[C@H](O[C@H]2[C@@H](O)[C@@H](CO)O[C@@H](O[C@@H]([C@H](O)[C@@H](O)C=O)[C@H](O)CO)[C@@H]2O)O[C@H](CO[C@]2(C(=O)O)C[C@H](O)[C@@H](NC(C)=O)[C@H]([C@H](O)[C@H](O)CO)O2)[C@@H](O)[C@@H]1O[C@@H]1O[C@H](CO)[C@H](O)[C@H](O[C@]2(C(=O)O)C[C@H](O)[C@@H](NC(C)=O)[C@H]([C@H](O)[C@H](O)CO)O2)[C@H]1O for isolated CBM40 from V. cholerae sialidase (Vibrio cholerae serotype O1).
Reply text: 4.89

Cited source for all entries: patent US9066894B2
